target: Kappa-type opioid receptor (Homo sapiens); test: blocks the human kappa opioid receptor, Maybridge compounds (AID 652031); conditions: OPRK1 cells, antagonist mode, fluorescence readout; at 9 µM; stronger effect = higher value
Out of some 16,000 compounds screened, about 70 (0.4%) were called active. The full list was thinned out, with actives kept by preference.
So I've got a bunch of molecules here, and I need their inhibition values.
One number for each entry, in %.

Recorded results for 5 molecules are shown here.
molecule	units	inhibition
COC(=O)/C=C/c1cn(C2OCC(CO)C2O)c(=O)[nH]c1=O (stereo unspecified)	%	-22
CCOC(=O)CCSc1cc(-n2cccc2)c(Cl)cc1[N+](=O)[O-]	%	-12.9
N#C/C(=C\c1sccc1Oc1ccccc1)S(=O)(=O)c1ccc(C(F)(F)F)cn1	%	-9.5
Clc1cncc(Cl)c1N/N=C/C1CC2C=CC1C2 (stereo unspecified)	%	1.3
COC(=O)C1=C(NNc2ccccc2)CSC1	%	8.6

Let us move to another entry and its inhibition.
Given the molecule `Cc1noc(C)c1C(=O)N1CCOCC1` and test system Kappa-type opioid receptor (Homo sapiens), the measured inhibition is 0.6

---

target: Kappa-type opioid receptor (Homo sapiens); experiment: blocks the human kappa opioid receptor, Maybridge compounds (AID 652031); settings: OPRK1 cells, antagonist mode, fluorescence readout; at 9 µM; stronger effect = higher value
Screen size: about 16,000 compounds; about 70 (0.4%) were called active. This is one part of a sample in which actives are shown more often than they occur.
assayReadout: inhibition (%)
One number for each entry, in %.

Some molecules with recorded inhibition:
molecularString	units	inhibition
COC(=O)c1ccccc1NC(=O)c1ccc(Oc2cc(Cl)cc(Cl)c2)o1	%	-7
CCOC(=O)CNC(=O)c1ccc(-c2cccc([N+](=O)[O-])c2)o1	%	9.9
CN(C)c1cc(-c2cc(Cl)sc2Cl)oc(=O)c1Cl	%	-5
COc1cccc2cc(C(=O)O)oc12	%	19.9
O=C(NCc1cccnc1)c1ccccc1NC(=O)c1c(F)cccc1F	%	-15.7
O=C1NC(=O)c2cc([N+](=O)[O-])c(Sc3c(Cl)cccc3Cl)cc21	%	4.3

Batch request: inhibition for each of the following molecules.
1. CCOC(=O)/C(C#N)=C/NNc1c(C)csc1C(=O)OC
2. Cc1cc(-c2noc(-c3cccs3)n2)no1
3. O=[N+]([O-])c1cc(C(F)(F)F)ccc1OCCO
4. CC(C)c1ccc(N2C(=O)/C(=C\c3ccc(-c4ccc([N+](=O)[O-])cc4)o3)SC2=S)cc1

Output:
[8.8, -20.2, 6.7, 8.3]

---

Kindly state inhibition for each of the entries shown.
biological target: Kappa-type opioid receptor (Homo sapiens) (UniProt P41145); assay: blocks the human kappa opioid receptor, Maybridge compounds (AID 652031); settings: OPRK1 cells, antagonist mode, fluorescence readout; at 9 µM; stronger effect = higher value
Sequence (P41145 whole entry, looked up): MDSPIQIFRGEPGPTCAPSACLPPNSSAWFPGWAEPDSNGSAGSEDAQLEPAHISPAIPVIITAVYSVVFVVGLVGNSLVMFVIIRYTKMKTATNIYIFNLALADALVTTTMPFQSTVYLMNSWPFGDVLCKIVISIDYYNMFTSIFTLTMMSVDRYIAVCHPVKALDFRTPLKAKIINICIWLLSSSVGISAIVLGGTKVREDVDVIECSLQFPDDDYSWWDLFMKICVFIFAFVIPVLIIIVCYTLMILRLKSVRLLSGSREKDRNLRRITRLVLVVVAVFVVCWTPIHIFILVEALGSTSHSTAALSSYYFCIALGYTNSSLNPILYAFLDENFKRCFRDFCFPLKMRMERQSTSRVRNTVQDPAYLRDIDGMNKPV
The whole screen tested about 16,000 compounds, of which about 70 (0.4%) were called active. Many of the other results were omitted from the sample, so actives are more common in it than they were.
Answers are plain numbers, in %.

Here are 7 molecules. What values of inhibition were reported for them?
1. O=c1oc2ccc(Cl)cc2cc1-c1ccc([N+](=O)[O-])cc1
2. CCOC(=O)Cn1sc2nc(C)cc(C)c2c1=O
3. CCCCCCCN=C(C)c1ccccc1O
4. CCOCCOCCN(CC)c1ccc(N=Nc2c(C#N)cc([N+](=O)[O-])cc2C#N)c(NC(C)=O)c1
5. CN(C(=O)Nc1ccc(Cl)cc1)n1cnc2ccccc2c1=O
6. O=C1CCC(=O)N(c2ccccc2)N1
7. CCOC(=O)c1cc(C)n(-c2cccc([N+](=O)[O-])c2)c1-c1ccccc1

Output:
-18.5
-8.2
-21.6
-11.4
-1.9
14.7
-0.8

---

molecular target: Kappa-type opioid receptor (Homo sapiens) (UniProt P41145); assay: blocks the human kappa opioid receptor, Maybridge compounds (AID 652031); details: OPRK1 cells, antagonist mode, fluorescence readout; at 9 µM; stronger effect = higher value
In all, about 16,000 compounds went through this assay and about 70 (0.4%) were called active. The full list was thinned out, with actives kept by preference.
assayReadout: inhibition (%)
Answers are plain numbers, in %.

molecularString	target	units	inhibition
COc1c(/C(N)=N/O)cc(C)c2c1CCC2	Kappa-type opioid receptor (Homo sapiens) (UniProt P41145)	%	-7.6

Provide the reported inhibition of each entry below, same order.
1. O=C(Nc1ccccc1)N1CCN(Cc2ccccc2)CC1
2. FC(F)(F)c1cnc(NN=C2CCSCC2)c(Cl)c1
3. Cc1ccc(S(=O)(=O)NNC(=S)NC(C)(C)C)cc1
4. O=C(NCc1ccc(F)cc1F)c1cc(C(F)(F)F)cc(C(F)(F)F)c1

Output:
1: 8.5; 2: -7.6; 3: -0.7; 4: 2.1

# batch: return inhibition for each of the 5 compounds below
1. CC(C)(C)c1cc(C(=O)/C=C2/NC(=O)CS2)no1
2. O=c1c2c(nc3nc[nH]n13)CCC2
3. COc1ccc(OC(=O)/C=C/c2sc3ccccc3c2C)cc1
4. Cc1ccc([N+](=O)[O-])c(C(=O)NCC(=O)O)c1
5. CNC(=O)c1ccccc1I

Output:
6.7
-20.2
8.8
-15.5
-1.2

---

molecular target: Kappa-type opioid receptor (Homo sapiens); test: blocks the human kappa opioid receptor, Maybridge compounds (AID 652031); settings: OPRK1 cells, antagonist mode, fluorescence readout; at 9 µM; stronger effect = higher value
About 70 (0.4%) of roughly 16,000 compounds were called active. The sample as a whole holds a higher share of actives than the screen did.
Kindly state inhibition for each of the entries shown.
Answers are plain numbers, in %.

molecularString	assayReadout	endpointResult
c1ccc(-c2nsc(N3CCNCC3)n2)cc1	inhibition	1.1
O=C(OCc1ccco1)c1cnc(Nc2ccc(OC(F)(F)F)cc2)nc1C(F)(F)F	inhibition	17.4

I would be grateful if you could provide inhibition for each of the following entries.
1. Cc1nc(-n2cccc2)sc1C(=O)N/N=C/c1ccccc1Cl
2. O=C(Nc1ccc(I)cc1Cl)C(=S)NCc1cccs1

Output:
1: 33.9; 2: -3.3
